Test system: S. enterica typhimurium WT;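 note: active when median AUC fell below 0.1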
Assay notes: growth AUC normalised to DMSO control (median) (fraction of control); higher = less growth inhibition, active = hit call of the paper
Experimental conditions: 20 µM
Counter-ions that a name gives are not always drawn.
# growth AUC normalised to DMSO control annotations

Value of measured growth AUC normalised to DMSO control for the entry c1ccc(CC2=NCCN2)cc1 [Tolazoline hydrochloride] : 0.987 (inactive)

Value of measured growth AUC normalised to DMSO control for the entry CC(CN(C)C)CN1c2ccccc2CCc2ccccc21 (stereo not drawn) [Trimipramine maleate salt] : 1.02 (inactive)

Value of measured growth AUC normalised to DMSO control for the entry N=C(N)N/N=C/c1c(Cl)cccc1Cl [Guanabenz acetate] : 0.946 (inactive)

Further cases:
Value of measured growth AUC normalised to DMSO control for the entry CC(C)CC(=O)N[C@H](C(=O)N[C@H](C(=O)N[C@@H](CC(C)C)[C@@H](O)CC(=O)N[C@@H](C)C(=O)N[C@@H](CC(C)C)[C@@H](O)CC(=O)O)C(C)C)C(C)C : 1.01 (inactive)

====

Test system: S. enterica typhimurium WT;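 note: active when median AUC fell below 0.1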
Assay notes: growth AUC normalised to DMSO control (median) (fraction of control); higher = less growth inhibition, active = hit call of the paper
Experimental conditions: 20 µM
Where a name gives a salt, the structure may show the parent alone.
Measured parameter: growth AUC normalised to DMSO control
Reply briefly: the number, and no unit.

Please review the entries below; each comes with its answer.
S. enterica typhimurium WT assay, compound CC[N+](CC)(CC)CCOc1cccc(OCC[N+](CC)(CC)CC)c1OCC[N+](CC)(CC)CC [Gallamine triethiodide] , recorded growth AUC normalised to DMSO control = 1.01

S. enterica typhimurium WT assay, compound O=C(O)Cc1ccccc1Oc1ccc(Cl)cc1Cl , recorded growth AUC normalised to DMSO control = 1.02

S. enterica typhimurium WT assay, compound CCCCC1(COC(=O)CCC(=O)O)C(=O)N(c2ccccc2)N(c2ccccc2)C1=O , recorded growth AUC normalised to DMSO control = 1.01

S. enterica typhimurium WT assay, compound CC(=O)Nc1ccccc1 [Acetanilide] , recorded growth AUC normalised to DMSO control = 0.997

S. enterica typhimurium WT assay, compound Cc1cc(/C=C/c2ccc3cc(N(C)C)ccc3[n+]2C)c(C)n1-c1ccccc1 [Pyrvinium pamoate] , recorded growth AUC normalised to DMSO control = 1.02

S. enterica typhimurium WT assay, compound Clc1ccc(Cn2c(CN3CCCC3)nc3ccccc32)cc1 [Clemizole hydrochloride] , recorded growth AUC normalised to DMSO control = 0.997

S. enterica typhimurium WT assay, compound Cc1[nH]cnc1CN1CCc2c(c3ccccc3n2C)C1=O [Alosetron hydrochloride] , recorded growth AUC normalised to DMSO control = 1

S. enterica typhimurium WT assay, compound O=C(NCCN1CCOCC1)c1ccc(Cl)cc1 [Moclobemide] , recorded growth AUC normalised to DMSO control = 0.998

S. enterica typhimurium WT assay, compound O=C(O)Cc1ccccc1Nc1c(Cl)cccc1Cl [Diclofenac sodium] , recorded growth AUC normalised to DMSO control = 1

S. enterica typhimurium WT assay, compound CCCCC(=O)N(Cc1ccc(-c2ccccc2-c2nnn[nH]2)cc1)[C@H](C(=O)O)C(C)C , recorded growth AUC normalised to DMSO control = 1.02

Further cases:
S. enterica typhimurium WT assay, compound C[C@H](NCc1ccc(OCc2cccc(F)c2)cc1)C(N)=O [Safinamide] , recorded growth AUC normalised to DMSO control = 0.986

S. enterica typhimurium WT assay, compound CCC[C@@H]1C[C@@H](C(=O)N[C@@H]([C@H]2O[C@H](SC)[C@H](OP(=O)(O)O)[C@@H](O)[C@H]2O)[C@H](C)Cl)N(C)C1 [Clindamycin Phosphate] , recorded growth AUC normalised to DMSO control = 1

S. enterica typhimurium WT assay, compound NC12CC3CC(CC(C3)C1)C2 [Adamantamine fumarate] , recorded growth AUC normalised to DMSO control = 0.996

S. enterica typhimurium WT assay, compound O=C(O)CSCC(=O)NC1CCSC1=O (stereo not drawn) , recorded growth AUC normalised to DMSO control = 1
